Field: IC50. System: human Bub1 (Homo sapiens (Human)). Provenance: assorted publications.

Known results for compounds:
1) Cc1nsc(Nc2cnc(C(F)(F)F)cn2)c1C(=O)Nc1ccc(C(=O)O)cc1 = 2.9 µM
2) Cc1nsc(Nc2cnc(C(F)(F)F)cn2)c1C(=O)Nc1ccc(F)c(OCC2CCN(CC(F)(F)F)C2)c1 (stereo not shown) = > 20 µM
3) Cc1nsc(Nc2cnc(C(F)(F)F)cn2)c1C(=O)Nc1ccc(F)c(F)c1 = > 20 µM
4) COc1ccc2nc(Nc3snc(C)c3C(=O)Nc3ccc(OC)nc3)sc2c1 = 11 µM

Shift focus to the following entry.
Task: Given `COCCOc1cnccc1-c1[nH]c2c(c1Nc1ccccc1OC(F)(F)F)C(=O)NCC2` , state its recorded IC50.
Result: 0.704 µM

* * *

# merged literature set: IC50 with human Bub1 (Homo sapiens (Human), UniProt O43683)

1. Cc1nsc(Nc2ccc(C#N)cn2)c1C(=O)Nc1ccc(F)c(C(N)=O)c1 = > 20 µM
2. COCC(=O)Nc1nc(-c2nn(Cc3ccccc3F)c3c2CCC3)nc(Nc2ccncc2)c1OC = 0.3 µM
3. Cc1nsc(Nc2cc(C#N)ccn2)c1C(=O)Nc1ccc(OC2CCCCC2)nc1 = > 20 µM
4. CCc1ccccc1NC(=O)c1c(C)nsc1Nc1cnccn1 = > 20 µM
5. Cc1nsc(Nc2cnc(C(F)(F)F)cn2)c1C(=O)Nc1ccc(F)c(OCC2CCN(CC(F)F)CC2)c1 = ≥ 20 µM

Task: GET /values?readout=IC50&system=human Bub1 (Homo sapiens (Human), UniProt O43683)&item= `COc1ccc(NC(=O)c2c(C)noc2Nc2cnc(C(F)(F)F)cn2)cn1`
Result: > 20 µM

Task: Would you mind doing `Oc1cnc(-c2nn(Cc3ccccc3F)c3c2CCC3)nc1Nc1ccncc1` as well?
Result: 0.3 µM

Task: Proceed to `Cc1nsc(Nc2cnc(C(F)(F)F)cn2)c1C(=O)Nc1ccc(OCCNC(=O)C(F)(F)F)nc1`
Result: ≥ 20 µM

* * *

Assembled from different publications: IC50 for human Bub1 (Homo sapiens (Human), UniProt O43683).

1) Cc1nsc(Nc2ccc(C#N)cn2)c1C(=O)Nc1ccc(F)c(F)c1 = > 20 µM
2) Cc1nsc(Nc2cnc(C(F)(F)F)cn2)c1C(=O)Nc1ccc(OC2CCN(C(C)C)CC2)nc1 = > 20 µM
3) Cc1nsc(Nc2cnc(C(F)(F)F)cn2)c1C(=O)Nc1ccc(OCCN)nc1 = 9.1 µM
4) COC(=O)c1cccc(NC(=O)c2c(C)nsc2Nc2cnc3ccccc3n2)c1 = ≥ 20 µM
5) Cc1nsc(Nc2cnccn2)c1C(=O)Nc1ccc(OC2CCCN(C(=O)OC(C)(C)C)C2)nc1 (centres unmarked) = ≥ 20 µM

Task: Please report the recorded IC50 for `Cc1nsc(Nc2cnc(C(F)(F)F)cn2)c1C(=O)Nc1ccc(F)c(OC[C@@H]2CCN(CC(F)F)C2)c1` .
Result: > 20 µM

Task: # iterate: Cc1nsc(Nc2cncc(C(F)(F)F)n2)c1C(=O)Nc1ccc(OCC2CCN(C(=O)OC(C)(C)C)C2)nc1 (centres unmarked)
Result: ≥ 20 µM

Task: Now try `N#Cc1cnccc1Nc1nc(-c2nn(Cc3ccccc3F)c3c2CCC3)ncc1OCC1(CO)COC1` .
Result: 0.04 µM

* * *

What follows is literature data on IC50 for human Bub1 (Homo sapiens (Human), UniProt O43683).

Example cases with answers are listed next.
1. Cc1nsc(Nc2ccc(C#N)cn2)c1C(=O)Nc1cccc(S(C)(=O)=O)c1 = > 20 µM
2. CNS(=O)(=O)c1ccc(NC(=O)c2c(C)nsc2Nc2cnc3ccccc3n2)cc1 = ≥ 20 µM
3. CCc1ccccc1NC(=O)c1c(C)nsc1Nc1cnc2ccc(Cl)cc2n1 = > 20 µM
4. Cc1nsc(Nc2cnc(C(F)(F)F)cn2)c1C(=O)Nc1ccc(OCC2CCCN(CC(F)(F)F)C2)nc1 (centres unmarked) = ≥ 20 µM
5. CCOc1cc(F)c(Cn2nc(-c3nc(Nc4ccncc4)nn3CCOC)c3ccccc32)c(F)c1 = 0.6 µM
6. CCc1ccnc(Nc2snc(C)c2C(=O)Nc2ccccc2CC)n1 = > 20 µM

Task: Test system human Bub1 (Homo sapiens (Human), UniProt O43683); read-out IC50; what value for `COCCOc1ccc(NC(=O)c2c(C)nsc2Nc2nc3c(C(F)(F)F)cccc3s2)cn1` ?
Result: ≥ 20 µM

Task: Request: `Cc1nsc(Nc2ccc(C#N)cn2)c1C(=O)Nc1ccc(Cl)c(F)c1`
Result: > 20 µM

* * *

Compiled pIC50 measurements on human Bub1 (Homo sapiens (Human)) taken from the literature.
pIC50: −log10 of the molar value.

Recorded results for 8 molecules are shown here.
1) Cc1nsc(Nc2cnc3ccccc3n2)c1C(=O)Nc1ccc(NC2CCCN(C(=O)OC(C)(C)C)C2)nc1 (stereo not shown) = < 4.70
2) CCOc1cc(F)c(Cn2nc(-c3cc(Nc4ccncn4)n(C(C)=O)n3)c(C)c2C2CC2)c(F)c1 = ≤ 4.70
3) Cc1nsc(Nc2cnc(C(F)(F)F)cn2)c1C(=O)Nc1ccc(F)c(OCC2CCCN(CC(F)(F)F)C2)c1 (stereo not shown) = ≤ 4.70
4) Cc1nsc(Nc2cnc(C(F)(F)F)cn2)c1C(=O)Nc1ccc(CCC2CCN(CC(F)F)CC2)nc1 = < 4.70
5) CCc1ccccc1NC(=O)c1c(C)nsc1Nc1cc(C(F)(F)F)ccn1 = < 4.70
6) Cc1nsc(Nc2cnc3ccccc3n2)c1C(=O)Nc1ccc(Oc2ccc(SC(F)(F)F)cc2)nc1 = < 4.70
7) Cc1nsc(Nc2cnc3ccccc3n2)c1C(=O)Nc1ccc(Cl)c(F)c1 = < 4.70
8) COCCOc1cnccc1-c1[nH]c2c(c1Nc1ccccc1)C(=O)NCC2 = 7.84

Task: Consider the molecule shown here: `COc1c(Nc2c(-c3ccncc3OCC(C)(C)OC)[nH]c3c2C(=O)NCC3)ccc(F)c1F` What is its recorded pIC50?
Result: 6.70

Task: Also, `Cc1nsc(Nc2cnc(C(F)(F)F)cn2)c1C(=O)Nc1ccc(O[C@@H]2CCN(CC(F)(F)F)C2)nc1` please.
Result: ≤ 4.70

* * *

Listing of IC50 toward human Bub1 (Homo sapiens (Human)), each taken from a published source.

Look over these answered cases.
1) CCNC(=O)c1cccc(NC(=O)c2c(C)nsc2Nc2ccc(C#N)cn2)c1 = > 20 µM
2) Cc1nsc(Nc2cnc3cc(F)ccc3n2)c1C(=O)Nc1ccc(F)c(F)c1 = > 20 µM
3) CS(=O)(=O)CCOc1cnc(-c2nn(Cc3ccccc3F)c3c2CCC3)nc1Nc1ccncc1C(N)=O = 0.03 µM
4) COc1cncc(Nc2snc(C)c2C(=O)Nc2ccc(F)c(F)c2)n1 = > 20 µM
5) Cc1nsc(Nc2ccc(C#N)cn2)c1C(=O)Nc1ccc(Cl)c(Cl)c1 = > 20 µM
6) Cc1noc(Nc2cnc(C(=O)NC3CCN(CC(F)F)CC3)cn2)c1C(=O)Nc1ccc(F)c(F)c1 = > 20 µM
7) Cc1nsc(Nc2cncc(C(F)(F)F)n2)c1C(=O)Nc1ccc(F)c(OC2CCN(CCF)CC2)c1 = > 20 µM
8) COc1ccc(NC(=O)c2c(C)nsc2Nc2nc3ccc(C)cc3s2)cn1 = > 20 µM
9) Cc1nsc(Nc2cnc(C(F)(F)F)cn2)c1C(=O)Nc1ccc(F)c(OC2CCN(C(=O)OC(C)(C)C)CC2)c1 = > 20 µM
10) CCOc1cc(F)c(Cn2nc(-c3cc(Nc4ccncn4)n(C)n3)c(C)c2C2CC2)c(F)c1 = 0.034 µM

Task: I have this compound here, `Cc1nsc(Nc2cnc3ccccc3n2)c1C(=O)Nc1cccc(C(=O)NCC(=O)OC(C)(C)C)c1` , and I need its recorded IC50.
Result: 16 µM

Task: Then what about the compound `Cc1nsc(Nc2cnc(C(F)(F)F)cn2)c1C(=O)Nc1ccc(O[C@H]2CCN(CC(F)F)C2)nc1` ?
Result: > 20 µM

Task: Now consider `Cc1nsc(Nc2cnc3ccccc3n2)c1C(=O)Nc1cccc(NS(=O)(=O)C2CN(CC(F)F)C2)c1` and answer again.
Result: > 20 µM

Task: Next compound up: `Cc1nsc(Nc2cnc(C(F)(F)F)cn2)c1C(=O)Nc1ccc(OCCNCCF)nc1`
Result: 14 µM

Task: Quick one: `COC(=O)CNC(=O)c1cccc(NC(=O)c2c(C)nsc2Nc2cnc3ccccc3n2)c1`
Result: 9 µM

Task: Same for `Cc1nsc(Nc2cncc(C(F)(F)F)n2)c1C(=O)Nc1ccc(C(=O)OC(C)(C)C)cc1`
Result: > 20 µM

* * *

# literature pull: human Bub1 (Homo sapiens (Human), UniProt O43683) IC50

1) COc1ccc(NC(=O)c2c(C)nsc2Nc2nc3ccc(F)cc3s2)cn1 = 17 µM

Task: What does the data say about its IC50? Entry: `Cc1nsc(Nc2cnc3ccccc3n2)c1C(=O)Nc1cccc(NS(=O)(=O)C2CCN(C(=O)OC(C)(C)C)CC2)c1`
Result: > 20 µM

Task: Now consider `CCOC(=O)c1cnccc1Nc1nc(-c2nn(Cc3ccccc3F)c3c2CCC3)ncc1O` and answer again.
Result: 0.03 µM

Task: What do you have for `COc1ccc(Oc2ccc(NC(=O)c3c(C)nsc3Nc3cnc4ccccc4n3)cn2)cc1` ?
Result: > 20 µM

Task: Next: `Cc1noc(Nc2cnc(C(F)(F)F)cn2)c1C(=O)Nc1ccc(OC[C@H]2CCN(CC(F)F)C2)nc1`
Result: > 20 µM

Task: Please give the result for Cc1nsc(Nc2cnc(C(F)(F)F)cn2)c1C(=O)Nc1ccc(F)c(OCC2CCN(C(CF)CF)C2)c1 (stereo not drawn) too.
Result: ≥ 20 µM

Task: // next record `COC(=O)c1cnc(Nc2snc(C)c2C(=O)Nc2ccc(F)c(F)c2)o1`
Result: > 20 µM

Task: And the next one, `COC(=O)c1cncc(Nc2snc(C)c2C(=O)Nc2ccc(OC)nc2)n1` ?
Result: > 20 µM

Task: Again, but for `Cc1nsc(Nc2cnc(C(F)(F)F)cn2)c1C(=O)Nc1ccc(F)c(OC[C@H]2CCN(CCC(F)(F)F)C2)c1`
Result: > 20 µM
